binding affinity relative to recombinant TNF-α: recorded values
study.target: T1, TNF-R1 (a protein having the amino acid sequence, Accession No. M58286 registered at GENBANK) (UniProt P19438 30-211, limits assumed)
T1 construct: also called TNF receptor having a molecular weight of 55 kilo daltons
T1 sequence (looked up): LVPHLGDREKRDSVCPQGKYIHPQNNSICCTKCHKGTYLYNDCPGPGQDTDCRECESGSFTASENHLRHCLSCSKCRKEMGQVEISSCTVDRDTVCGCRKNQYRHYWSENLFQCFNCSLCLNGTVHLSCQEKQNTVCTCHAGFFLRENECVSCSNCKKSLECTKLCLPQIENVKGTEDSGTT
assay.name: SPR (BIACORE 2000), receptor on sensor tip; grade 4 = two times or more that of recombinant TNF-α

Past entries and their recorded results:
binder	value
TNF mutant protein of clone No. 33 (ligand, Mutant of lysine-replaced TNF, made in E. coli) VRSSSRTPSDMPVAHVVANPQAEGQLQWLNRRANALLANGVELRDNQLVVPSEGLYLIYSQVLFSGQGCPSTHVLLTHTISRINHRYQDPVNLLSAIRSPCQRETPEGAEANPWYEPIYLGGVFQLEPGDRLSAEINRPDYLDFAESGQVYFGIIAL	≥ 2 fold
TNF mutant protein of clone No. 26 (ligand, Mutant of lysine-replaced TNF, made in E. coli) VRSSSRTPSDMPVAHVVANPQAEGQLQWLNRRANALLANGVELRDNQLVVPSEGLYLIYSQVLFSGQGCPSTHVLLTHTISRISSHYRFPVNLLSAIRSPCQRETPEGAEANPWYEPIYLGGVFQLEPGDRLSAEINRPDYLDFAESGQVYFGIIAL	≥ 2 fold
TNF mutant protein of clone No. 24 (ligand, Mutant of lysine-replaced TNF, made in E. coli) VRSSSRTPSDMPVAHVVANPQAEGQLQWLNRRANALLANGVELRDNQLVVPSEGLYLIYSQVLFSGQGCPSTHVLLTHTISRITHKYPQPVNLLSAIRSPCQRETPEGAEANPWYEPIYLGGVFQLEPGDRLSAEINRPDYLDFAESGQVYFGIIAL	≥ 2 fold

# input Could you share which binding affinity relative to recombinant TNF-α value was measured for TNF mutant protein of clone No. 21 (ligand, Mutant of lysine-replaced TNF, made in E. coli) VRSSSRTPSDMPVAHVVANPQAEGQLQWLNRRANALLANGVELRDNQLVVPSEGLYLIYSQVLFSGQGCPSTHVLLTHTISRITSAYGPPVNLLSAIRSPCQRETPEGAEANPWYEPIYLGGVFQLEPGDRLSAEINRPDYLDFAESGQVYFGIIAL ?
# output ≥ 2 fold

# input Do the same for TNF mutant protein of clone No. 32 (ligand, Mutant of lysine-replaced TNF, made in E. coli) VRSSSRTPSDMPVAHVVANPQAEGQLQWLNRRANALLANGVELRDNQLVVPSEGLYLIYSQVLFSGQGCPSTHVLLTHTISRITDRYSSPVNLLSAIRSPCQRETPEGAEANPWYEPIYLGGVFQLEPGDRLSAEINRPDYLDFAESGQVYFGIIAL please
# output ≥ 2 fold

# input Lookup TNF mutant protein of clone No. 19 (ligand, Mutant of lysine-replaced TNF, made in E. coli) VRSSSRTPSDMPVAHVVANPQAEGQLQWLNRRANALLANGVELRDNQLVVPSEGLYLIYSQVLFSGQGCPSTHVLLTHTISRISYNYNGPVNLLSAIRSPCQRETPEGAEANPWYEPIYLGGVFQLEPGDRLSAEINRPDYLDFAESGQVYFGIIAL
# output ≥ 2 fold

# input Same question, TNF mutant protein of clone No. 16 (ligand, Mutant of lysine-replaced TNF, made in E. coli) VRSSSRTPSDMPVAHVVANPQAEGQLQWLNRRANALLANGVELRDNQLVVPSEGLYLIYSQVLFSGQGCPSTHVLLTHTISRISSTYPDPVNLLSAIRSPCQRETPEGAEANPWYEPIYLGGVFQLEPGDRLSAEINRPDYLDFAESGQVYFGIIAL this time
# output ≥ 2 fold

# input Please give the result for TNF mutant protein of clone No. 18 (ligand, Mutant of lysine-replaced TNF, made in E. coli) VRSSSRTPSDMPVAHVVANPQAEGQLQWLNRRANALLANGVELRDNQLVVPSEGLYLIYSQVLFSGQGCPSTHVLLTHTISRISPLYPKPVNLLSAIRSPCQRETPEGAEANPWYEPIYLGGVFQLEPGDRLSAEINRPDYLDFAESGQVYFGIIAL too.
# output ≥ 2 fold

Provenance of the data: patent US20100222258A1
